src = paper PMC3056899

target-of-assay: CFIm25 (human, UniProt O43809 1-227)
Sequence (O43809 whole entry): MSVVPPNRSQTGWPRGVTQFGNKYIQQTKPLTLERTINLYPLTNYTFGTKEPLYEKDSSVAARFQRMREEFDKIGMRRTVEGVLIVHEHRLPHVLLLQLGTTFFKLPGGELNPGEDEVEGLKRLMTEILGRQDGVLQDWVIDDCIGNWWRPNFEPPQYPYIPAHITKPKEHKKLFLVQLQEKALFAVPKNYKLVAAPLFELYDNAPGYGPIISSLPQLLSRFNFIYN
protocol: EMSA
recorded-endpoint: pKd
Give bare numbers, as −log10 of the molar value.

Give its pKd value. Item: GGGUGUAAAACAGAUGAUGUAU (ssRNA) [PAPOLA upstream element as printed]
6.19
